# Target desc: FLT3 D835Y (Homo sapiens, UniProt P36888, D835Y)
# Construct: purchased Invitrogen (SelectScreen platform)
# Test details: SelectScreen kinase specificity survey
# Assay type: biochemical
# Settings: estimated, abridged dose response curve, read-out: Kinase inhibitory activity EC50
We begin with a simple list: items and their reported EC50.
Give a bare numeral; the unit nM is implied.

[[record]]
compound = "CN(C)CCCNc1ccc2ncn3c4ccc5[nH]ncc5c4c(=O)c1c23"
observed_result = 1


Pending compound:
Param readout= EC50; system= FLT3 D835Y (Homo sapiens, UniProt P36888, D835Y); entry= CCN(CC)CCNc1ccc2ncn3c4ccc(O)cc4c(=O)c1c23 [Symadex, reference compound] ; returns value.
3

* * *

# Target desc: FGR (Homo sapiens, UniProt P09769)
# Sequence (P09769 whole entry): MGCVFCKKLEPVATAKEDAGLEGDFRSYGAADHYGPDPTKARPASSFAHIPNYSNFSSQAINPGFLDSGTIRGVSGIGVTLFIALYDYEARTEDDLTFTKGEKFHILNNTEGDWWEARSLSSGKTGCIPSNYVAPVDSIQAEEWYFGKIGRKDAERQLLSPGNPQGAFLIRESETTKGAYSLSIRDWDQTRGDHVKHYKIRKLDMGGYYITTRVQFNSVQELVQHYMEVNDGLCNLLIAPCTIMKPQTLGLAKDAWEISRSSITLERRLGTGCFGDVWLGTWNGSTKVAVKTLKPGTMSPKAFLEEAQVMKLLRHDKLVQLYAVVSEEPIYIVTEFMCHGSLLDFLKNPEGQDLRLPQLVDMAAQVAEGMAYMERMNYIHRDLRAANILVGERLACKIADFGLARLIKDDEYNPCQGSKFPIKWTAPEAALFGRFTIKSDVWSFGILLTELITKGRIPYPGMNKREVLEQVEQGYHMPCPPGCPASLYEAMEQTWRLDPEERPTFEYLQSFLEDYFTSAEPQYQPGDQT
# Test details: SelectScreen kinase specificity survey
# Settings: estimated, abridged dose response curve, read-out: Kinase inhibitory activity EC50
We begin with a simple list: items and their reported pEC50.
// pEC50: -log10(molar conc.)

[[record]]
compound = "CCN(CC)CCNc1ccc2ncn3c4ccc(O)cc4c(=O)c1c23 [Symadex, reference compound]"
observed_result = 5.90


Requested field: pEC50. Item: CN(C)CCCNc1ccc2ncn3c4ccc5[nH]ncc5c4c(=O)c1c23 [Compound (IV)]
6.44

* * *

We begin with a simple list: items and their reported EC50.
# Target desc: MAP4K4 (HGK, ZC1) (Homo sapiens)
# Sequence (O95819 whole entry): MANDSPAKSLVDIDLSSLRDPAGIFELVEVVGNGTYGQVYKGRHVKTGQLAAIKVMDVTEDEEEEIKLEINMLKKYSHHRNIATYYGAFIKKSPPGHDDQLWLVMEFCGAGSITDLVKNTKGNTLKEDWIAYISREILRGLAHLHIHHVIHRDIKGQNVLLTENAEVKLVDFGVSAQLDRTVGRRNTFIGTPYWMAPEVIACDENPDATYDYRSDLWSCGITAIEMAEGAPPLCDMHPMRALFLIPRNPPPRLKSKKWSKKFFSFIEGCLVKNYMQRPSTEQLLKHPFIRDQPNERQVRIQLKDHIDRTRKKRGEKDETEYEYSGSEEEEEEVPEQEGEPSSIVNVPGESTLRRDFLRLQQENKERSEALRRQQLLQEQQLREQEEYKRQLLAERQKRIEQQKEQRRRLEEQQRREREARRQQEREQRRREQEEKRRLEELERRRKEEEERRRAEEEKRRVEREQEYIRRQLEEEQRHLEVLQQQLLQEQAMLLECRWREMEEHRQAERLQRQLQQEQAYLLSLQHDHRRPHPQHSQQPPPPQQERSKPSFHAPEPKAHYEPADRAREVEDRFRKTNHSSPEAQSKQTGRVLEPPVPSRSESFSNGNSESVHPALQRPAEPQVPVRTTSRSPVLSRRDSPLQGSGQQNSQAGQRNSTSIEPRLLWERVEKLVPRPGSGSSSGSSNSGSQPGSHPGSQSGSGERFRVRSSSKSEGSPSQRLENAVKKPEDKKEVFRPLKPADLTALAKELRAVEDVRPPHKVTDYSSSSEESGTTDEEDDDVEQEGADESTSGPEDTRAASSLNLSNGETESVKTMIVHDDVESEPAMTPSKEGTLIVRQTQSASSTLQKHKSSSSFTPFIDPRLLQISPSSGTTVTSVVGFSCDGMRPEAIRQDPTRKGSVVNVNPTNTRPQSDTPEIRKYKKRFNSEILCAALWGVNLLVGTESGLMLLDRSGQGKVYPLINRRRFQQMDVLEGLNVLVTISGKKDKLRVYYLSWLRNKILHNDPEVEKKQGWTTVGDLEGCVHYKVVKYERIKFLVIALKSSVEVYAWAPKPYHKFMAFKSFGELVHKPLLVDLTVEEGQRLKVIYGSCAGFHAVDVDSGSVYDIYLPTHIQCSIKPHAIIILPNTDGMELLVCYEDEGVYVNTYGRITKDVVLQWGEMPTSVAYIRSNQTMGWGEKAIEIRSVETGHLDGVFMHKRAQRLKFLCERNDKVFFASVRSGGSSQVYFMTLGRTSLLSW
# Test details: SelectScreen kinase specificity survey
# Settings: estimated, abridged dose response curve, read-out: Kinase inhibitory activity EC50

Requested field: EC50. Item: `CN(C)CCCNc1ccc2ncn3c4ccc5[nH]ncc5c4c(=O)c1c23`
> 5 µM

Requested field: EC50. Item: CCN(CC)CCNc1ccc2ncn3c4ccc(O)cc4c(=O)c1c23 [Symadex, reference compound]
3.13 µM

* * *

# Target desc: PLK3 (Homo sapiens, UniProt Q9H4B4)
# Sequence (Q9H4B4 whole entry): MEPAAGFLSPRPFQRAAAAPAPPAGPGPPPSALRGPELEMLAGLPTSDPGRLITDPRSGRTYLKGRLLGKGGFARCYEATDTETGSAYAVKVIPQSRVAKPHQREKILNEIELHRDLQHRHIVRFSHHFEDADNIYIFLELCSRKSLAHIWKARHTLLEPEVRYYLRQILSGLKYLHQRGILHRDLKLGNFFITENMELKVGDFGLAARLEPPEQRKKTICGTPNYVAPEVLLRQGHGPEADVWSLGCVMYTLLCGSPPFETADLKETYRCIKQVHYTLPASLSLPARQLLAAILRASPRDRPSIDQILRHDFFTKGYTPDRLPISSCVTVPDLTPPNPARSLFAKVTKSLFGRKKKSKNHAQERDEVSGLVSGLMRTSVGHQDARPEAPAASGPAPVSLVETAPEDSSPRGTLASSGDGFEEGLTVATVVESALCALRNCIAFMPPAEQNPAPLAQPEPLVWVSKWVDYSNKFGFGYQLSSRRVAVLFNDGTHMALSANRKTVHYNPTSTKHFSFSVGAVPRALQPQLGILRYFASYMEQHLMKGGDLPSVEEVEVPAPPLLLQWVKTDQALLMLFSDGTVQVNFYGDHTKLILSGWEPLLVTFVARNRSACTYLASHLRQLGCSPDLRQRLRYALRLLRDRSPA
# Test details: SelectScreen kinase specificity survey
# Settings: estimated, abridged dose response curve, read-out: Kinase inhibitory activity EC50
Value kind: EC50

[[record]]
molecule = "CCN(CC)CCNc1ccc2ncn3c4ccc(O)cc4c(=O)c1c23 [Symadex, reference compound]"
observed_result = "> 5 µM"


Requested field: EC50. Item: `CN(C)CCCNc1ccc2ncn3c4ccc5[nH]ncc5c4c(=O)c1c23`
> 5 µM

* * *

# Target desc: AMPK A1/B1/G1 (Homo sapiens, UniProt P54619+Q13131+Q9Y478)
# Construct: purchased Invitrogen, Inc. (SelectScreen platform)
# Sequence (Q13131 whole entry): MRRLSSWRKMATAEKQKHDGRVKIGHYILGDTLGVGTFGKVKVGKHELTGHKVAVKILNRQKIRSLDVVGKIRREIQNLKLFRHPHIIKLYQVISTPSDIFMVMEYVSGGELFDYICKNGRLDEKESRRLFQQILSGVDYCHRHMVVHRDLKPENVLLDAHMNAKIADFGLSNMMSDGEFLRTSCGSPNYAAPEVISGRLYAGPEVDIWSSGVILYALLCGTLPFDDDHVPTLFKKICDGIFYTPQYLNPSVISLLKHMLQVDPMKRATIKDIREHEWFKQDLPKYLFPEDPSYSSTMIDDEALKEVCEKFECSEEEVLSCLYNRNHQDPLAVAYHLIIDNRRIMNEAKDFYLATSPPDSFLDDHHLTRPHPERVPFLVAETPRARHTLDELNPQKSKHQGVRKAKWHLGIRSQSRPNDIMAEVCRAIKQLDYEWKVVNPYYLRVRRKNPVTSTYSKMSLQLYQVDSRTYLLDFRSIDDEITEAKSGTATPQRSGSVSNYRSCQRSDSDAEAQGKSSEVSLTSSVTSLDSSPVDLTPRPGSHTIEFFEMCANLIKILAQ
# Sequence (Q9Y478 whole entry partner): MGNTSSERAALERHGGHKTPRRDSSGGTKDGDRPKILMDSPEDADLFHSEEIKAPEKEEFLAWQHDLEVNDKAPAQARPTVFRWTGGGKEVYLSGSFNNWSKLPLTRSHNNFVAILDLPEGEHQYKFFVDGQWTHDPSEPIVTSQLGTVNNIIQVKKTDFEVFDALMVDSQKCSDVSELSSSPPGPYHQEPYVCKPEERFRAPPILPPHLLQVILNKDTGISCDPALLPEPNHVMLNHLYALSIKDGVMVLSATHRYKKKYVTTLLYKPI
# Sequence (P54619 whole entry partner): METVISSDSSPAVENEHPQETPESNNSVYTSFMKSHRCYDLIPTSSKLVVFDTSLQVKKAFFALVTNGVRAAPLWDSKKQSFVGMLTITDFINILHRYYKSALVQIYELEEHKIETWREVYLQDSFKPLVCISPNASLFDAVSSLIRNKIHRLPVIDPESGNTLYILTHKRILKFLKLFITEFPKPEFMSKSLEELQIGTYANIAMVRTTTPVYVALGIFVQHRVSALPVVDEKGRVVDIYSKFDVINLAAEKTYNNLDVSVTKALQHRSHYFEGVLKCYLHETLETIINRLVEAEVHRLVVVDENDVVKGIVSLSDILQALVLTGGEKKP
# Test details: SelectScreen kinase specificity survey
# Assay type: biochemical
# Settings: estimated, abridged dose response curve, read-out: Kinase inhibitory activity EC50
Value kind: EC50 (µM)
Give a bare numeral; the unit µM is implied.

Requested field: EC50. Item: CCN(CC)CCNc1ccc2ncn3c4ccc(O)cc4c(=O)c1c23 [Symadex, reference compound]
3.48

* * *

# Target desc: UniProtKB P54760
# Sequence (P54760 16-987): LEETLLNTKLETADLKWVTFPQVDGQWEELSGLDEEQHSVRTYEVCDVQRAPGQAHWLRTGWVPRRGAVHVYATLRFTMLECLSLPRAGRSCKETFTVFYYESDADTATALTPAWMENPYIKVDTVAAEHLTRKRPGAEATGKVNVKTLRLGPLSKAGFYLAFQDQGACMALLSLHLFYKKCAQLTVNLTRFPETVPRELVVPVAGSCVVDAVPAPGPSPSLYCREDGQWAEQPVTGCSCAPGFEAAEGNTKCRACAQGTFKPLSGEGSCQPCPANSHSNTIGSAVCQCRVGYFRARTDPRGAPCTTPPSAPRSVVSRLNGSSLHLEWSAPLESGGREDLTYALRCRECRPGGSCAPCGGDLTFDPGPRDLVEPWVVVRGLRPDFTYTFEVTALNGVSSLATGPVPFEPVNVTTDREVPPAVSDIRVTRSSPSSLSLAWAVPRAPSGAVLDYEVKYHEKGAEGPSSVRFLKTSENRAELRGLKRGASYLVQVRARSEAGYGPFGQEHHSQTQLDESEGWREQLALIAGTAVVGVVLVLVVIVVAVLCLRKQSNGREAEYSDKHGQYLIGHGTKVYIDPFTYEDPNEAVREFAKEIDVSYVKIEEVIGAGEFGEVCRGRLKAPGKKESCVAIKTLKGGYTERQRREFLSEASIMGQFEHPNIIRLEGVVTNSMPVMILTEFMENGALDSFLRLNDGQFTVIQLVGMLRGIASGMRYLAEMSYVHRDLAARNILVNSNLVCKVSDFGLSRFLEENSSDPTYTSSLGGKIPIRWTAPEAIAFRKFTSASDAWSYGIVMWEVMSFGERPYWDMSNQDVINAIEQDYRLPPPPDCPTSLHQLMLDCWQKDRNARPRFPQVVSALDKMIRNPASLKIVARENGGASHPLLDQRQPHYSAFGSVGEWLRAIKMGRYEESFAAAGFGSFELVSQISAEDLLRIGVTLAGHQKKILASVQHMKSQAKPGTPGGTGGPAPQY
# Test details: SelectScreen kinase specificity survey
# Settings: estimated, abridged dose response curve, read-out: Kinase inhibitory activity EC50
pEC50: −log10 of the molar value.
Value kind: pEC50

[[record]]
compound = "CCN(CC)CCNc1ccc2ncn3c4ccc(O)cc4c(=O)c1c23 [Symadex, reference compound]"
observed_result = "< 5.30"


Requested field: pEC50. Item: CN(C)CCCNc1ccc2ncn3c4ccc5[nH]ncc5c4c(=O)c1c23 [Compound (IV)]
< 5.30
